TGT: human IRAK4 kinase domain (aa 154-460) (Homo sapiens (Human))
EXPERIMENTAL_PROTOCOL: IRAK4 Enzymatic DELFIA Assay, Protocol B
Type: biochemical
TEST_SETTINGS: human IRAK4 kinase domain (aa 154-460), 0.6 mM ATP (KM); read-out: IRAK4 DELFIA Protocol B IC50
MEASURED_ATTRIBUTE: IC50

{"SMILES_ENTRY": "CC(C)Oc1cc2c(OC[C@H]3CNCCO3)ccnc2cc1C(N)=O", "RESULT": "2380 nM"}
{"SMILES_ENTRY": "CC(C)Oc1cc2c(OCC3CCC3)ccnc2cc1C(N)=O", "RESULT": "598 nM"}
{"SMILES_ENTRY": "CC(C)Oc1cc2c(OCC3(C)CCN(C(=O)CC#N)CC3)nccc2cc1C(N)=O", "RESULT": "216 nM"}
{"SMILES_ENTRY": "CC(C)Oc1cc2c(O[C@@H]3C[C@H]4C[C@@H]3CN(C(=O)CC#N)C4)nccc2cc1C(N)=O", "RESULT": "320 nM"}
{"SMILES_ENTRY": "CC(C)Oc1cc2c(OCC3(F)CCN(C(=O)CC#N)CC3)ccnc2cc1C(N)=O", "RESULT": "3170 nM"}

----------
Reported values of pIC50 for individual entries
TGT: human IRAK4 FL (Full Length) (Homo sapiens (Human))
Sequence (Q9NWZ3 whole entry): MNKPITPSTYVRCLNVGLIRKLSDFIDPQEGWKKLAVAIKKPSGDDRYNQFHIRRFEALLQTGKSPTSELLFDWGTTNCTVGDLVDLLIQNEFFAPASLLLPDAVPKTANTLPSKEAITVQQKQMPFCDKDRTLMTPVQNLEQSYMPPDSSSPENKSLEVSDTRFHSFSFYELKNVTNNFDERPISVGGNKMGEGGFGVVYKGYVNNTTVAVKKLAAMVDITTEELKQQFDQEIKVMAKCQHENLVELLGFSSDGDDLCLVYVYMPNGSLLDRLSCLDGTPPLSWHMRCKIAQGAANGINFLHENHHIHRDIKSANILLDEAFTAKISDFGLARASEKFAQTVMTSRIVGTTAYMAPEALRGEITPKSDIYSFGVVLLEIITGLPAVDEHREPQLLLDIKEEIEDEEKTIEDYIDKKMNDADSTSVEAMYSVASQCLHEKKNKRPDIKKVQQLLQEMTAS
EXPERIMENTAL_PROTOCOL: IRAK4 Enzymatic DELFIA Assay, Protocol A
Format: biochemical
TEST_SETTINGS: human IRAK4 FL, 0.6 mM ATP (KM); read-out: IRAK4 DELFIA Protocol A IC50
pIC50: −log10 of the molar value.

{"COMPOUND": "COc1cc2c(OC[C@@H]3C[C@@](F)(CCF)C(=O)N3)ccnc2cc1C(N)=O", "pIC50": 8.66}
{"COMPOUND": "CC(C)Oc1cc2c(OC[C@@H]3C[C@@](F)(C(C)(C)O)C(=O)N3)nccc2cc1C(N)=O", "pIC50": 7.00}
{"COMPOUND": "CC(C)Oc1cc2c(OC[C@@H]3COC(=O)N3)nccc2cc1C(N)=O", "pIC50": 8.18}
{"COMPOUND": "CC(C)Oc1cc2c(OCC3CCC(=O)NC3)nccc2cc1C(N)=O (centres unmarked)", "pIC50": 5.91}
{"COMPOUND": "CCOc1cc2c(OC[C@H]3NC(=O)[C@@H](F)[C@H]3CC)nccc2cc1C(N)=O", "pIC50": 9.40}
{"COMPOUND": "COc1cc2c(OC[C@@H]3CCC(=O)N3)ncnc2cc1C(N)=O", "pIC50": 6.60}
{"COMPOUND": "COc1cc2c(OC[C@H]3NC(=O)[C@@H](F)[C@H]3C)nccc2cc1C#N", "pIC50": 6.36}
{"COMPOUND": "COc1cc2c(OC[C@H]3NC(=O)[C@@](C)(F)[C@H]3C)nccc2cc1C(N)=O", "pIC50": 8.43}

----------
TGT: human IRAK4 kinase domain (aa 154-460) (Homo sapiens (Human), UniProt Q9NWZ3)
Sequence (Q9NWZ3 154-460): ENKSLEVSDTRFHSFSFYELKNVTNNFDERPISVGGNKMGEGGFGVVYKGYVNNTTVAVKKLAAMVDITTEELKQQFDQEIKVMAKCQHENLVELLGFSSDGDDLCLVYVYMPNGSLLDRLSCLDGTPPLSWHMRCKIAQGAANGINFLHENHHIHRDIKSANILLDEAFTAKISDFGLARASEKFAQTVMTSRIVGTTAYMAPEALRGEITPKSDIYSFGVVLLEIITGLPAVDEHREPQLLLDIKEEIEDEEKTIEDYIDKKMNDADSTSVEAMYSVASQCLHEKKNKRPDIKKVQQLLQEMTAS
EXPERIMENTAL_PROTOCOL: IRAK4 Enzymatic DELFIA Assay, Protocol B
Assay type: biochemical
pIC50: −log10 of the molar value.

{"MOLECULE": "CC(C)Oc1cc2c(OC3CC[C@@H]4CN(C(=O)CC#N)C[C@H]34)ccnc2cc1C(N)=O (single isomer, unassigned) [Example 71]", "pIC50": 6.82}
{"MOLECULE": "CC(C)Oc1cc2c(OC3C4CC5C(C4)C53)ccnc2cc1C(N)=O (stereo not drawn) [Example 17]", "pIC50": 6.32}
{"MOLECULE": "CC(C)Oc1cc2c(OC3CC4CCC3C4)ccnc2cc1C(N)=O (stereo not drawn) [Example 16]", "pIC50": 6.41}
